test: Log P (Pion SiriusT3 instrument); format: physicochemical
assay.endpoint: logP

Solved cases below.
O=C(O)c1cccc(C(=O)N2CCCCC2)c1 : 1.15
O=C(O)C1CCCC(C(=O)N2CCCCC2)C1 (stereo not drawn) : 0.95
O=C(C1CC2CC(CO)C21)N1CCCCC1 (stereo not drawn) : 0.74

1: O=C(C1CCCC(CO)C1)N1CCCCC1 (stereo not drawn)
2: O=C(O)[C@@H]1C[C@H]2C[C@H](C(=O)N3CCCCC3)[C@H]21
3: O=C(c1cccc(CO)c1)N1CCCCC1
Could you please order the items by logP, going from the lowest number to the highest? A ranking is expressed here by listing the labels in the requested order. 3, 2, 1
(3: 0.41, 2: 0.98, 1: 1.45)

---

assay: High throughput equilibrium solubility (miniaturized shake flask); type: physicochemical; conditions: phosphate buffer, aqueous buffer, thermodynamic from solid; pH 6.8 phosphate media, shaken 16 hours
assay.endpoint: solubility at 16 h

O=C(O)c1cccc(C(=O)N2CCCCC2)c1 [compound 39] : > 200 µM
O=C(c1cccc(CO)c1)N1CCCCC1 [compound 36] : > 200 µM
O=C(O)[C@@H]1C[C@H]2C[C@H](C(=O)N3CCCCC3)[C@H]21 [compound 38] : 180 µM
O=C(C1CC2CC(CO)C21)N1CCCCC1 (stereo not drawn) [compound 35] : > 200 µM

Entry O=C(C1CCCC(CO)C1)N1CCCCC1 (stereo not drawn) [compound 37] : reported solubility at 16 h = ? > 200 µM

Report solubility at 16 h for O=C(O)C1CCCC(C(=O)N2CCCCC2)C1 (stereo not drawn) [compound 40] please. 200 µM

---

experiment: Permeability (MDCK), apparent permeability apical-to-basolateral; type: in vitro ADME; settings: dog, with bafilomycin 100 nM in both compartments, MDCK-KO cells, pH 7.4, 2 h, read-out: Papp A-Bx10^-6
assay.endpoint: Papp at 2 h, 10 μM (×10⁻⁶ cm/s)

O=C(O)c1cccc(C(=O)N2CCCCC2)c1 : 4
O=C(c1cccc(CO)c1)N1CCCCC1 : 32
O=C(C1CCCC(CO)C1)N1CCCCC1 (stereo not drawn) : 28

P: O=C(C1CC2CC(CO)C21)N1CCCCC1 (stereo not drawn)
Q: O=C(O)[C@@H]1C[C@H]2C[C@H](C(=O)N3CCCCC3)[C@H]21
Parameter metric = Papp at 2 h, 10 μM. Return the lower-valued option from P and Q . Pick one; state its label. Q
(Q: 5 ×10⁻⁶ cm/s, P: 29 ×10⁻⁶ cm/s)

---

Form field: Rat Clint (one value per entry).
assay: Microsomal clearance (rat liver microsomal intrinsic clearance); assay type: in vitro ADME; conditions: rat liver microsomes, 37 °C, NADPH, 0-30 minutes

// below: answered compounds
O=C(O)C1CCCC(C(=O)N2CCCCC2)C1 (stereo not drawn) : < 10 mL/min
O=C(O)[C@@H]1C[C@H]2C[C@H](C(=O)N3CCCCC3)[C@H]21 : < 10 mL/min
O=C(C1CC2CC(CO)C21)N1CCCCC1 (stereo not drawn) : 15 mL/min
O=C(O)c1cccc(C(=O)N2CCCCC2)c1 : < 10 mL/min
O=C(C1CCCC(CO)C1)N1CCCCC1 (stereo not drawn) : 21 mL/min

Shift focus to the following entry.
Form field: reported Rat Clint of O=C(c1cccc(CO)c1)N1CCCCC1 < 10 mL/min
